Emax: recorded values
System: rat metabotropic glutamate receptor 5 (mGluR5) (Rattus norvegicus, UniProt P31424)
Construct: expressed in transfected cells; host or cells: HEK 293
Sequence (P31424 21-1171 isoform P31424-2 limits assumed): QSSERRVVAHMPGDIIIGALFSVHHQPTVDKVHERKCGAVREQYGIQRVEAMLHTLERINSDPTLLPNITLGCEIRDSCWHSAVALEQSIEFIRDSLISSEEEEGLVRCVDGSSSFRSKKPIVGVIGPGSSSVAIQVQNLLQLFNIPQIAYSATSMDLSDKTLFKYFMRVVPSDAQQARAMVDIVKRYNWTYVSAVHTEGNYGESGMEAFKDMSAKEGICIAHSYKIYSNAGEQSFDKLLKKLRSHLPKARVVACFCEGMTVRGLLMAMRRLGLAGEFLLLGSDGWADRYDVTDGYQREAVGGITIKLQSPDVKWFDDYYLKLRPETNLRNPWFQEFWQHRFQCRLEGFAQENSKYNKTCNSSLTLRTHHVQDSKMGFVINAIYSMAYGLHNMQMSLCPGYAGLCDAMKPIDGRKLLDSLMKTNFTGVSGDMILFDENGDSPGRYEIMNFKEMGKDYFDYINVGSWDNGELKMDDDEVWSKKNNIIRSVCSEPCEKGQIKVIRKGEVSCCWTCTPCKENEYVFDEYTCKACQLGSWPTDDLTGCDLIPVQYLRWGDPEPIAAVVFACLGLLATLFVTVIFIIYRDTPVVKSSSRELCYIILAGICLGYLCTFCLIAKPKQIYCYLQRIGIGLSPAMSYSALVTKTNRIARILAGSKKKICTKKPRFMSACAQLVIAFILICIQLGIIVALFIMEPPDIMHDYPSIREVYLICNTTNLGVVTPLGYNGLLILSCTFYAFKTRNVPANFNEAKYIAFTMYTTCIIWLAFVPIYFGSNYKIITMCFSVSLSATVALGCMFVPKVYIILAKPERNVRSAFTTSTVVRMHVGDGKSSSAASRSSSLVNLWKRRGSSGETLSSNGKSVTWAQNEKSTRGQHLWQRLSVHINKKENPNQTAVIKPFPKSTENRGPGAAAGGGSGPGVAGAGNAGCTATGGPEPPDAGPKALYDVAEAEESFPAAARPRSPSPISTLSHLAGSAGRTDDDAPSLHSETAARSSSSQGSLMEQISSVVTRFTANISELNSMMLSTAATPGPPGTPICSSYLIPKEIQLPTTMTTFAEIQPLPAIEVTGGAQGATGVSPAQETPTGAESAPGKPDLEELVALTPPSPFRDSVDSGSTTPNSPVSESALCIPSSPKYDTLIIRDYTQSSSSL
Run Description: Calcium mobilization assay (FLIPR) for negative or positive allosteric activity, HEK 293 cells
Assay type: cell-based
Stated Conditions: HEK293, negative allosteric modulation, inhibition of EC80 glutamate response; read-out: FLIPR maximum inhibition

{"Molecule": "CN(CCO)c1cccc(C(=O)NC23CC4CC(CC(NC(=O)c5cccc(F)c5)(C4)C2)C3)n1 [Example 213]", "Emax": "63 to 99%"}
{"Molecule": "Cc1cncc(C(=O)NC23CC4CC(CC(NC(=O)c5ccc(F)c(Cl)c5)(C4)C2)C3)n1 [Example 149]", "Emax": "70 to 99%"}
{"Molecule": "Cc1cnc(C(=O)NC23CC4CC(CC(NC(=O)c5ccccn5)(C4)C2)C3)cn1 [Example 63]", "Emax": "63 to 99%"}
{"Molecule": "Cc1cccc(C(=O)NC23CC4CC(CC(NC(=O)c5cc(Br)ccn5)(C4)C2)C3)n1 [Example 138]", "Emax": "70 to 99%"}
{"Molecule": "Cc1cccc(C(=O)NC23CC4CC(C2)CC(NC(=O)c2nccs2)(C4)C3)n1 [Example 40]", "Emax": "63 to 99%"}
{"Molecule": "Cc1cccc(C(=O)NC23CC4CC(C2)CC(NC(=O)c2cccc(C)c2)(C4)C3)c1 [Example 16]", "Emax": "63 to 99%"}
{"Molecule": "Cc1cnc(C(=O)NC23CC4CC(C2)CC(NC(=O)c2ccn(C)n2)(C4)C3)cn1 [Example 18]", "Emax": "63 to 99%"}
{"Molecule": "O=C(NC12CC3CC(C1)CC(NC(=O)C1CCCCC1)(C3)C2)c1ccccn1 [Example 84]", "Emax": "63 to 99%"}
